Source of measurements: patent US11612661B2

PROTOCOL SUMMARY: in vivo
CONDITION DETAILS: male, Sprague Dawley, rat, sc, 1 mg/kg
Bridge positions count the residues as written; N and C are the ends. Square brackets hold non-standard residues; d marks the D form. Triazole bridges read from a SMILES are 1,4-linked. Peptide text beside a SMILES is read from it. Orn(N3) = [N-]=[N+]=NCCC[C@H](N)C(=O)O; Cit = NC(=O)NCCC[C@H](N)C(=O)O; Pra = C#CC[C@H](N)C(=O)O
MEASUREMENT LABEL: AUC (ng·h/mL)
Only the number, expressed in ng·h/mL, is required.

Record request: AUC value, item C[C@@H](O)[C@@H]1NC(=O)[C@@H]2Cc3cn(nn3)CCC[C@@H](C(=O)N[C@@H](Cc3ccc(O)cc3)C(=O)O)NC(=O)[C@H](CCC(N)=O)NC(=O)[C@H](Cc3c[nH]c4ccccc34)NC(=O)[C@H](CCCNC(N)=O)NC(=O)[C@H](CSSC[C@H](NC(=O)CN)C(=O)N2)NC(=O)[C@H](CCCNC(=N)N)NC(=O)[C@@H]2CCCN2C(=O)[C@H](CC(=O)O)NC1=O [Ia] (H-GC[Pra]TDPRC[Cit]WQ[Orn(N3)]Y-OH; disulfide 2-8; triazole 3-12) 981
